# credit: patent US8614333B2

Quick reference: concentration of the protein bands (semiquantitative, normalized), Bcl-2 of the listed items.
Test system: Bcl-2
Assay: Western blotting, semiquantitative analysis of Bcl-2 protein bands
Assay type: cell-based
Settings: 18 h; control = 1; tumor cells
metricName: concentration of the protein bands (semiquantitative, normalized), Bcl-2

compoundStructureString | endpointResult
O=C1N=C2C(=C1NCCCc1ccccc1)c1cccc3cccc2c13 | 0.49
CCCCNC1=C2C(=NC1=O)c1cccc3c(Oc4ccc(C(C)C)cc4)ccc2c13 | 0.57
CC(C)c1ccc(Sc2ccc3c4c(cccc24)C2=NC(=O)C(C#N)=C23)cc1 | 0.50
O=C1N=C2C(=C1NCCCc1ccccc1)c1ccc(N3CCSCC3)c3cccc2c13 | 0.45
